- Test system: basophils
- experiment_description: Basophil activation in human whole blood (Flow2 CAST kit, CD63 positive cells)
- Format: cell-based
- cond: basophils activated with anti-FcεRI mAb or fMLP, geometric mean
For each entry below, report its EC50 value.

Ask: Report EC50 for Cc1c(F)cc(F)cc1-n1c(C(C)Nc2nc(N)nc(N)c2C#N)nc2cccc(Cl)c2c1=O (single isomer, unassigned) [Compound 200a-2] please.
Reply: 1 to 10 nM

Ask: Report EC50 for CC(Nc1nc(N)nc(N)c1F)c1nc2cccc(Cl)c2c(=O)n1-c1ccccc1 (single isomer, unassigned) [Compound 194a] please.
Reply: > 50 nM

Ask: Report EC50 for Cc1ccc(C(F)F)cc1-n1c(C(C)Nc2nc(N)nc(N)c2C#N)nc2cccc(Cl)c2c1=O (single isomer, unassigned) [Compound 188a-1] please.
Reply: 10 to 50 nM

Ask: Report EC50 for CC(Nc1nc(N)nc(N)c1C#N)c1cc2cccc(Cl)c2c(=O)n1-c1ccccc1 (single isomer, unassigned) [Compound 196a] please.
Reply: < 1 nM

Value sought for every listed compound: EC50.
1. Cc1ccc(F)cc1-n1c(C(C)Nc2nc(N)nc(N)c2C#N)nc2cccc(Cl)c2c1=O (single isomer, unassigned) [Compound 201a-2]
2. CC(Nc1nc(N)nc(N)c1C#N)c1nc2cccc(Cl)c2c(=O)n1-c1cc(C(F)F)cc(C(F)F)c1 (single isomer, unassigned) [Compound 137a]
3. Cc1cccc(-n2c(C(C)Nc3nc(N)nc(N)c3C#N)nc3cccc(Cl)c3c2=O)c1C (single isomer, unassigned) [Compound 202a-1]

Reply:
1. 1 to 10 nM
2. 10 to 50 nM
3. 1 to 10 nM

----------
- experiment_description: Hepatocyte stability, 0.01% final DMSO, 1 μM substrate (t1/2^b)
- Assay type: in vitro ADME
- cond: human, hepatocytes, TA with 0.01% final DMSO, 1 μM substrate, samples at 0, 1, 3, 6 hours; read-out: human hepatocyte t½^b
For each entry below, report its half-life at 1 μM value.

Value sought for every listed compound: half-life at 1 μM.
1. CC(Nc1nc(N)nc(N)c1C#N)c1nc2cccc(C(F)F)c2c(=O)n1-c1cc(F)cc(F)c1 (single isomer, unassigned) [Compound 52a]
2. CCC(Nc1nc(N)nc(N)c1C#N)c1nc2c(F)ccc(F)c2c(=O)n1-c1ccccc1 (single isomer, unassigned) [Compound 150a]
3. CC(Nc1nc(N)nc(N)c1C#N)c1nc2ccc(F)c(Cl)c2c(=O)n1-c1cc(F)cc(F)c1 (single isomer, unassigned) [Compound 140a]
4. CCC(Nc1nc(N)nc(N)c1C#N)c1nc2cccc(F)c2c(=O)n1-c1cccc(F)c1 (single isomer, unassigned) [Compound 179a]
5. CC(Nc1nc(N)nc(N)c1C#N)c1nc2cccc(Cl)c2c(=O)n1-c1cc(F)cc(OC(F)(F)F)c1 (single isomer, unassigned) [Compound 193a]
6. CC(Nc1nc(N)nc(N)c1C#N)c1nc2cccc(Cl)c2c(=O)n1-c1cccc(CC(F)F)c1 (single isomer, unassigned) [Compound 120a]
7. CCCC(Nc1nc(N)nc(N)c1C#N)c1nc2cccc(F)c2c(=O)n1-c1cc(F)cc(F)c1 (single isomer, unassigned) [Compound 175a]
8. CC(Nc1nc(N)nc(N)c1C#N)c1nc2cccc(S(C)(=O)=O)c2c(=O)n1-c1cc(F)cc(C(F)F)c1 (single isomer, unassigned) [Compound 98a]

Reply:
1. 6 to 10 h
2. 3 to 6 h
3. 3 to 6 h
4. 6 to 10 h
5. 1 to 3 h
6. 1 to 3 h
7. 6 to 10 h
8. 3 to 6 h

Value sought for every listed compound: half-life at 1 μM.
1. CCC(Nc1nc(N)nc(N)c1C#N)c1nc2c(F)ccc(F)c2c(=O)n1-c1cccc(C#N)c1 (single isomer, unassigned) [Compound 152a]
2. CC(Nc1nc(N)nc(N)c1C#N)c1nc2cccc(Cl)c2c(=O)n1-c1cccc(C(F)(F)F)c1 (single isomer, unassigned) [Compound 47a]
3. CC(Nc1nc(N)nc(N)c1C#N)c1nc2cccc(F)c2c(=O)n1-c1cccc(C#N)c1 (single isomer, unassigned) [Compound 38a]
4. CC(Nc1nc(N)nc(N)c1C#N)c1nc2cccc(Cl)c2c(=O)n1-c1ccccc1 (single isomer, unassigned) [Compound 49a]

Reply:
1: 3 to 6 h; 2: 3 to 6 h; 3: > 10 h; 4: 3 to 6 h
